# Test system: barnyardgrass
# measurement_description: Test A postemergence
# Assay type: in vivo, Echinochloa crusgalli
# condition: 1000 g ai/ha, Postemergence; 0 to 100 scale
# Plant response rating, Barnyardgrass per record follows

| molecule | Plant response rating, Barnyardgrass |
| --- | --- |
| CCC1CN(C(=O)c2ccnc(-n3cncn3)c2)c2cccc(I)c2O1 (stereo not shown) | 0 |
| Cc1cccc2c1O[C@@H](C)CN2C(=O)c1cccc(-n2cc(C#N)cn2)c1 | 10 |
| CC1CN(C(=O)c2cccc(-n3cncn3)c2)c2ccc(F)cc2O1 (stereo not shown) | 10 |
| C[C@H]1CN(C(=O)c2cccc(-n3cnnn3)c2)c2cccc(Cl)c2O1 | 50 |
| C[C@H]1CN(C(=O)c2cccc(-n3cncn3)c2)c2cccc(Cl)c2O1 | 70 |
| Cc1cccc2c1O[C@@H](C)CN2C(=O)c1cccc(-n2cc(Cl)cn2)c1 | 0 |
| C#Cc1cccc2c1OC(C)CN2C(=O)c1cccc(-n2cncn2)c1 (stereo not shown) | 20 |
